Give measured melting point for each item. Keep answers brief.

Ask | Give the reported melting point for this molecule. S=c1[nH]nc(-c2cc(-c3n[nH]c(=S)n3Cc3ccccc3)cc(-c3n[nH]c(=S)n3Cc3ccccc3)c2)n1Cc1ccccc1
Reply | 240 to 241 °C

Ask | Respond only with melting point recorded for CCn1c(-c2cc(-c3n[nH]c(=S)n3CC)cc(-c3n[nH]c(=S)n3CC)c2)n[nH]c1=S
Reply | 266 to 268 °C

Ask | Identify the reported melting point for the following entry. C=CCn1c(-c2cc(-c3n[nH]c(=S)n3CC=C)cc(-c3n[nH]c(=S)n3CC=C)c2)n[nH]c1=S
Reply | 287 to 288 °C

====

Can you tell me IC50 for the items I'm about to list?
test system: MCF-7 cells; experiment: MTT cytotoxicity assay, MCF-7; details: Homo sapiens, MCF7, 72 h, read-out: In Vitro Cytotoxicity IC50 MCF-7
I only need the number, in µM, no unit after it.

Ask | Answer with the recorded IC50 for the molecule listed here: CC(=O)O[C@H]1C(=O)[C@@]2(C)[C@H]([C@H](OC(=O)c3ccccc3)[C@]3(O)C[C@H](OC(=O)[C@H](O)[C@@H](NC(=O)c4ccccc4)c4ccccc4)C(C)=C1C3(C)C)[C@]1(OC(C)=O)CO[C@@H]1C[C@@H]2O [Taxol, reference compound]
Reply | 7.8

Ask | Write down IC50 measured for item C=CCn1c(-c2cc(-c3n[nH]c(=S)n3CC=C)cc(-c3n[nH]c(=S)n3CC=C)c2)n[nH]c1=S
Reply | 5.83

Ask | Given the molecule CNc1nnc(-c2cc(-c3nnc(NC)s3)cc(-c3nnc(NC)s3)c2)s1 , write its reported IC50.
Reply | 9.2

Ask | Provide one value: measured IC50 of c1ccc(Nc2nnc(-c3cc(-c4nnc(Nc5ccccc5)s4)cc(-c4nnc(Nc5ccccc5)s4)c3)s2)cc1
Reply | 2.34

Ask | Item S=c1[nH]nc(-c2cc(-c3n[nH]c(=S)n3C3CCCCC3)cc(-c3n[nH]c(=S)n3C3CCCCC3)c2)n1C1CCCCC1 : provide IC50
Reply | 13.7

====

test system: MCF-7 cells; assay: MTT cytotoxicity assay, MCF-7; conditions: Homo sapiens, MCF7, 72 h, read-out: In Vitro Cytotoxicity IC50 MCF-7
pIC50: −log10 of the molar value.
Please enter fulfilled where pIC50 is greater than or equal to 5, and not fulfilled where it is lower.

Ask | Determine whether this compound has pIC50 no lower than 5: CCNc1nnc(-c2cc(-c3nnc(NCC)s3)cc(-c3nnc(NCC)s3)c2)s1
Reply | not fulfilled

Ask | pIC50 >= 5 for S=c1[nH]nc(-c2cc(-c3n[nH]c(=S)n3-c3ccccc3)cc(-c3n[nH]c(=S)n3-c3ccccc3)c2)n1-c1ccccc1 ?
Reply | not fulfilled

Ask | Could you verify whether the entry c1c(-c2nnc(NC3CCCCC3)s2)cc(-c2nnc(NC3CCCCC3)s2)cc1-c1nnc(NC2CCCCC2)s1 shows pIC50 of no less than 5?
Reply | not fulfilled

Ask | Is pIC50 at least 5? Consider C=CCNc1nnc(-c2cc(-c3nnc(NCC=C)s3)cc(-c3nnc(NCC=C)s3)c2)s1
Reply | fulfilled

Ask | Say whether Cn1c(-c2cc(-c3n[nH]c(=S)n3C)cc(-c3n[nH]c(=S)n3C)c2)n[nH]c1=S shows pIC50 of 5 or more.
Reply | not fulfilled

Ask | Textbook exercise: given the entry S=c1[nH]nc(-c2cc(-c3n[nH]c(=S)n3Cc3ccccc3)cc(-c3n[nH]c(=S)n3Cc3ccccc3)c2)n1Cc1ccccc1 , state whether its pIC50 is greater than or equal to 5.
Reply | fulfilled
